Each recorded value in this set is attributed to patent US11066414B2.

Target: Human Cot (Homo sapiens (Human), UniProt P41279)
Sequence (P41279 30-397): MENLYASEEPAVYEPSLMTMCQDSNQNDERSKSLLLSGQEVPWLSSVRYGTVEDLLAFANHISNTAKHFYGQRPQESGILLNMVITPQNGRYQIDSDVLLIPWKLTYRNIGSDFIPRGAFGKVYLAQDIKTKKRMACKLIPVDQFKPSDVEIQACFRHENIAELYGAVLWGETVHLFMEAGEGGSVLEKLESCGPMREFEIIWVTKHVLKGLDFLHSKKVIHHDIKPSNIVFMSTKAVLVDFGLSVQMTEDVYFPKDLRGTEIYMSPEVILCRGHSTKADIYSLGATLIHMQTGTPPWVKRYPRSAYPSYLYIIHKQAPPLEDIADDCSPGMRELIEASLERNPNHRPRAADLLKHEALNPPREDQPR
Assay: High Throughput Cot Biochemical Assay
Conditions: IC50 HTRF, Cot HTRF (TR-FRET) biochemical assay
Measurement label: log10 of IC50 (log10 of the value in nM)

{"columns": ["Smiles representation", "Measurement label", "Recorded measurement"],
 "data": [
  ["CC(C)(C)CNc1c(C#N)cnc2c(Br)cc(N[C@H](c3cn(C4CC4)nn3)c3cccc4nc(N)sc34)cc12", "log10 of IC50", 1.28],
  ["Cn1ccc2c([C@H](Nc3cc(Cl)c4ncc(C#N)c(NCC(C)(C)C(F)(F)F)c4c3)c3cn(C45CC(C4)C5)nn3)cccc2c1=O", "log10 of IC50", 0.30],
  ["CC(C)(C)CNc1c(C#N)cnc2c(C#N)cc(N[C@H](c3cn(C4(C(F)(F)F)CC4)nn3)c3cccc4[nH]ncc34)cc12", "log10 of IC50", 0.60],
  ["Cn1nnc2cccc([C@H](Nc3cc(Cl)c4ncc(C#N)c(NCC(C)(C)C)c4c3)c3cn(C4(C(F)(F)F)CC4)nn3)c21", "log10 of IC50", 0.70],
  ["CCN1CCC(n2cc([C@H](c3cccnc3)N(CC)c3cc(Cl)c4ncc(C#N)c(Nc5ccc(F)c(Cl)c5)c4c3)nn2)CC1", "log10 of IC50", 2.81],
  ["Cc1ncccc1[C@H](Nc1cc(Cl)c2ncc(C#N)c(Nc3cccc(Cl)c3F)c2c1)c1cn(C(C)C)nn1", "log10 of IC50", 0.30]
]}

----------
// values below are reported IC50
Target: Human Cot (Homo sapiens (Human), UniProt P41279)
Assay: High Throughput Cot Biochemical Assay
Details: IC50 HTRF, Cot HTRF (TR-FRET KinEASE) biochemical assay, 400 μM ATP

{"columns": ["Compound", "IC50 [nM]"],
 "data": [
  ["Cc1nc(F)ccc1[C@H](Nc1cc(Cl)c2ncc(C#N)c(NCC(C)(C)C)c2c1)c1nnn(C2(C(F)F)CC2)c1C#N [Example 974]", 11],
  ["Cc1nc(F)ccc1[C@H](Nc1cc(Cl)c2ncc(C#N)c(NCC(C)(C)C)c2c1)c1nnn(C2CC2)c1C1CC1 [Example 946]", 5],
  ["COc1c(C(Nc2cc(Cl)c3ncc(C#N)c(NCC(C)(C)C)c3c2)c2ccc(F)nc2C)nnn1C (stereo not drawn) [Example 971]", 11],
  ["Cc1nc(C#N)ccc1[C@H](Nc1cc(C#N)c2ncc(C#N)c(NCC(C)(C)C)c2c1)c1cn(C2(C(F)(F)F)CC2)nn1 [Example 830]", 16],
  ["CCC(C)n1cc([C@@H](Nc2cc(Cl)c3ncc(C#N)c(NCC(C)(C)C)c3c2)c2cccc3c(=O)n(C)ccc23)nn1 (stereo partly drawn) [Example 801]", 3],
  ["[2H]c1c([C@@H](Nc2cc(Cl)c3ncc(C#N)c(NC([2H])([2H])C(C)(C)C)c3c2)c2ccc(F)nc2C)nnn1C1(C(F)F)CC1 [Example 973]", 3]
]}

----------
// values below are reported pIC50
Target: Human Cot (Homo sapiens (Human), UniProt P41279)
Assay: High Throughput Cot Biochemical Assay
Settings: IC50 HTRF, Cot HTRF (TR-FRET) biochemical assay
pIC50: −log10 of the molar value.

{"columns": ["Compound", "pIC50"],
 "data": [
  ["Cc1ncsc1[C@H](Nc1cc(C#N)c2ncc(C#N)c(NCC(C)(C)C)c2c1)c1cn(C2(C(F)F)CC2)nn1 [Example 640]", 8.52],
  ["CC(C)(C)CNc1c(C#N)cnc2c(Cl)cc(N[C@H](c3cn(C4(C(F)F)CC4)nn3)c3ccc(F)c4ncccc34)cc12 [Example 653]", 8.40],
  ["Cc1ncccc1[C@H](Nc1cc(Cl)c2ncc(C#N)c(N[C@H](C)c3ccccc3)c2c1)c1cn(C2COC2)nn1 [Example 171]", 8.00],
  ["Cc1nc(Cl)ccc1[C@H](Nc1cc(Cl)c2ncc(C#N)c(Nc3ccc(F)c(Cl)c3)c2c1)c1cn(C2COC2)nn1 [Example 321]", 8.00]
]}

----------
Target: UniProtKB P41279
Assay: High Throughput Cot Biochemical Assay
Conditions: IC50 HTRF, Cot HTRF (TR-FRET KinEASE) biochemical assay, 400 μM ATP
Label t when IC50 is strictly below 4 nM; otherwise label f.

{"columns": ["Compound", "Cat"],
 "data": [
  ["Cn1ccc2c([C@H](Nc3cc(C#N)c4ncc(C#N)c(NCC(C)(C)C(F)(F)F)c4c3)c3cn(C45CC(C4)C5)nn3)cccc2c1=O [Example 883]", "t"],
  ["Cc1nc(F)ccc1[C@H](Nc1cc(Cl)c2ncc(C#N)c(NCC(C)(C)C)c2c1)c1nnn(C23CC(C2)C3)c1F [Example 951]", "f"],
  ["Cc1nc(F)ccc1[C@H](Nc1cc(Cl)c2ncc(C#N)c(NCC(C)(C)C(F)(F)F)c2c1)c1nnn(C2(C(F)F)CC2)c1F [Example 948]", "f"],
  ["Cc1nc(F)ccc1[C@H](Nc1cc(Cl)c2ncc(C#N)c(NCC(C)(C)C)c2c1)c1nnn(C2(C(F)F)CC2)c1I [Example 945]", "f"]
]}

----------
System: TNFα
Assay: Cot Monocyte TNFα Cell Based Assay
Details: Homo sapiens, Monocyte, read-out: EC50 TNF, LPS-stimulated human monocytes, TNFα

{"columns": ["Smiles representation", "Units symbol", "EC50"],
 "data": [
  ["Cc1ncccc1[C@H](Nc1cc(Cl)c2ncc(C#N)c(Nc3cccc(Cl)c3F)c2c1)c1cn(C(C)C)nn1", "nM", 125],
  ["CC(C)(C)CNc1c(C#N)cnc2c(Cl)cc(N[C@H](c3cn(C4CC4)nn3)c3cccc4scnc34)cc12", "nM", 407],
  ["[2H][C@](Nc1cc(Cl)c2ncc(C#N)c(N[C@H](CC)c3ccccc3)c2c1)(c1ccc(F)nc1)c1cn(C(C)(C)C)nn1", "nM", 150],
  ["Cc1nc(Cl)ccc1[C@H](Nc1cc(Cl)c2ncc(C#N)c(Nc3cnc(F)c(F)c3)c2c1)c1c[nH]nn1", "nM", 1220]
]}

----------
Target: Human Cot (Homo sapiens (Human))
Test: High Throughput Cot Biochemical Assay
Details: IC50 HTRF, Cot HTRF (TR-FRET) biochemical assay
pIC50: −log10 of the molar value.

{"columns": ["Smiles representation", "System under test", "pIC50"],
 "data": [
  ["CCc1nc(F)ccc1[C@H](Nc1cc(C#N)c2ncc(C#N)c(NCC(C)(C)C)c2c1)c1cn(C2(C(F)F)CC2)nn1", "Human Cot (Homo sapiens (Human))", 8.52],
  ["Cc1nc2cccc([C@H](Nc3cc(C#N)c4ncc(C#N)c(NCC(C)(C)C)c4c3)c3cn(C4(C(F)(F)F)CC4)nn3)c2s1", "Human Cot (Homo sapiens (Human))", 8.30],
  ["CC(C)(C)N1CCC(n2cc([C@@H](Nc3cc(Cl)c4ncc(C#N)c(Nc5cccc(Cl)c5F)c4c3)c3csc4c3CCN(C3COC3)C4)nn2)CC1", "Human Cot (Homo sapiens (Human))", 8.70]
]}

----------
// values below are reported log10 of IC50
Molecular target: Human Cot (Homo sapiens (Human), UniProt P41279)
Test: High Throughput Cot Biochemical Assay
Settings: IC50 HTRF, Cot HTRF (TR-FRET) biochemical assay
Measurement label: log10 of IC50 (log10 of the value in nM)

{"columns": ["Compound", "System under test", "Recorded measurement"],
 "data": [
  ["Cc1nc(F)ccc1[C@H](Nc1cc(Cl)c2ncc(C#N)c(NCC(C)(C)C(F)(F)F)c2c1)c1cn(C2(C)CC2)nn1", "Human Cot (Homo sapiens (Human), UniProt P41279)", 0.30],
  ["[2H][C@](Nc1cc(C#N)c2ncc(C#N)c(NCC(C)(C)C)c2c1)(c1ccc(F)nc1)c1cn(C2CC2)nn1", "Human Cot (Homo sapiens (Human), UniProt P41279)", 0.48],
  ["Cn1cc2cccc([C@H](Nc3cc(C#N)c4ncc(C#N)c(NCC(C)(C)C)c4c3)c3cn(C4(C(F)(F)F)CC4)nn3)c2n1", "Human Cot (Homo sapiens (Human), UniProt P41279)", 1.82],
  ["Cn1ccc2c([C@H](Nc3cc(Cl)c4ncc(C#N)c(NCC(C)(C)C)c4c3)c3cn(C4(C)CC4)nn3)cccc2c1=O", "Human Cot (Homo sapiens (Human), UniProt P41279)", 0.30],
  ["CC(C)(C)N1CCC(n2cc([C@@H](Nc3cc(Cl)c4ncc(C#N)c(Nc5ccc(F)c(Cl)c5)c4c3)c3ccc(Cl)nc3Cl)nn2)CC1", "Human Cot (Homo sapiens (Human), UniProt P41279)", 1.30],
  ["Cc1ccc([C@H](Nc2cc(Cl)c3ncc(C#N)c(NCC(C)(C)C)c3c2)c2cn(C3(C(F)(F)F)CC3)nn2)c(F)n1", "Human Cot (Homo sapiens (Human), UniProt P41279)", 1.48],
  ["C[C@@H](n1cc([C@@H](Nc2cc(Cl)c3ncc(C#N)c(Nc4cnc(F)c(F)c4)c3c2)c2cccnc2)nn1)C(F)(F)F", "Human Cot (Homo sapiens (Human), UniProt P41279)", 1.86],
  ["CC(C)(C)CNc1c(C#N)cnc2c(Cl)cc(N[C@H](c3cn(C4(CO)CC4)nn3)c3cccc4ncsc34)cc12", "Human Cot (Homo sapiens (Human), UniProt P41279)", 0.60],
  ["CC[C@@H](Nc1c(C#N)cnc2c(C#N)cc(N[C@H](c3cn(C4(C(F)(F)F)CC4)nn3)c3cccc4ncsc34)cc12)c1ccccc1", "Human Cot (Homo sapiens (Human), UniProt P41279)", 0.85],
  ["CCN1CCc2c([C@H](Nc3cc(Cl)c4ncc(C#N)c(Nc5ccc(F)c(Cl)c5)c4c3)c3cn(C(C)C)nn3)csc2C1", "Human Cot (Homo sapiens (Human), UniProt P41279)", 0.48],
  ["CC(C)(C)CNc1c(C#N)cnc2c(Cl)cc(NC(c3cn(C4CC4)nn3)c3csc4c3CCN(C3COC3)C4)cc12 (centres unmarked)", "Human Cot (Homo sapiens (Human), UniProt P41279)", 0.30],
  ["CC(C)(C)CNc1c(C#N)cnc2c(C#N)cc(N[C@H](c3cn(C4(C#N)CC4)nn3)c3cccc4ncsc34)cc12", "Human Cot (Homo sapiens (Human), UniProt P41279)", 0.00],
  ["CC(C)(C)CNc1c(C#N)cnc2c(Cl)cc(N[C@H](c3cn(C4CC4)nn3)c3cccc4ncsc34)cc12", "Human Cot (Homo sapiens (Human), UniProt P41279)", 0.30],
  ["Cc1cncc([C@H](Nc2cc(Cl)c3ncc(C#N)c(Nc4ccc(F)c(Cl)c4)c3c2)c2cn(C(C)C)nn2)c1", "Human Cot (Homo sapiens (Human), UniProt P41279)", 1.26],
  ["Cn1ccc2c([C@H](Nc3cc(Cl)c4ncc(C#N)c(NCC(C)(C)C)c4c3)c3cn(C45CC(C4)C5)nn3)cccc21", "Human Cot (Homo sapiens (Human), UniProt P41279)", 1.67],
  ["CC(C)(C)n1cc([C@@H](Nc2cc(Cl)c3ncc(C#N)c(Nc4cnc(F)c(F)c4)c3c2)c2cccnc2)nn1", "Human Cot (Homo sapiens (Human), UniProt P41279)", 1.23],
  ["[2H][C@@](Nc1cc(Cl)c2ncc(C#N)c(NCC(C)(C)C)c2c1)(c1cn(C2CC2)nn1)c1cccnc1N(C)C", "Human Cot (Homo sapiens (Human), UniProt P41279)", 2.25],
  ["CC(C)(C)CNc1c(C#N)cnc2c(C#N)cc(N[C@H](c3cn(C4(C(F)(F)F)CC4)nn3)c3cncc4ccccc34)cc12", "Human Cot (Homo sapiens (Human), UniProt P41279)", 2.15],
  ["Cc1nc(F)ccc1[C@H](Nc1cc(C#N)c2ncc(C#N)c(NCC(C)(C)C)c2c1)c1cn(C2CC2)nn1", "Human Cot (Homo sapiens (Human), UniProt P41279)", 0.30],
  ["CC(C)(C)CNc1c(C#N)cnc2c(C#N)cc(N[C@H](c3cn(C4(C(F)F)CC4)nn3)c3cccc4ccncc34)cc12", "Human Cot (Homo sapiens (Human), UniProt P41279)", 0.30],
  ["N#Cc1cnc2c(Cl)cc(N[C@@H](C3=CCOCC3)c3c[nH]nn3)cc2c1Nc1ccc(Cl)c(Cl)c1F", "Human Cot (Homo sapiens (Human), UniProt P41279)", 1.20],
  ["[2H]C(Nc1cc(Cl)c2ncc(C#N)c(N[C@H](CC)c3ccccc3)c2c1)(c1cn(C2CC2)nn1)c1scnc1C (some centres unmarked)", "Human Cot (Homo sapiens (Human), UniProt P41279)", 0.70],
  ["C[C@@H](Nc1c(C#N)cnc2c(Cl)cc(N[C@H](c3c[nH]nn3)c3csc4c3CCN(C3COC3)C4)cc12)c1ccccc1", "Human Cot (Homo sapiens (Human), UniProt P41279)", 0.48],
  ["CC(C)n1cc([C@@H](Nc2cc(Cl)c3ncc(C#N)c(Nc4ccc(F)c(Cl)c4)c3c2)c2csc3c2CCN(C)C3)nn1", "Human Cot (Homo sapiens (Human), UniProt P41279)", 0.48],
  ["Cn1cc2c([C@H](Nc3cc(C#N)c4ncc(C#N)c(NCC(C)(C)C)c4c3)c3cn(C4(C(F)(F)F)CC4)nn3)cccc2n1", "Human Cot (Homo sapiens (Human), UniProt P41279)", 0.48],
  ["[2H]C(Nc1cc(Cl)c2ncc(C#N)c(NCC(C)(C)C)c2c1)(c1cn(C2CC2)nn1)c1ccc(Cl)nc1C (centres unmarked)", "Human Cot (Homo sapiens (Human), UniProt P41279)", 0.48]
]}
